# TARGET_OR_SYSTEM: UniProt Q9BZL6
# Sequence (Q9BZL6 1-878): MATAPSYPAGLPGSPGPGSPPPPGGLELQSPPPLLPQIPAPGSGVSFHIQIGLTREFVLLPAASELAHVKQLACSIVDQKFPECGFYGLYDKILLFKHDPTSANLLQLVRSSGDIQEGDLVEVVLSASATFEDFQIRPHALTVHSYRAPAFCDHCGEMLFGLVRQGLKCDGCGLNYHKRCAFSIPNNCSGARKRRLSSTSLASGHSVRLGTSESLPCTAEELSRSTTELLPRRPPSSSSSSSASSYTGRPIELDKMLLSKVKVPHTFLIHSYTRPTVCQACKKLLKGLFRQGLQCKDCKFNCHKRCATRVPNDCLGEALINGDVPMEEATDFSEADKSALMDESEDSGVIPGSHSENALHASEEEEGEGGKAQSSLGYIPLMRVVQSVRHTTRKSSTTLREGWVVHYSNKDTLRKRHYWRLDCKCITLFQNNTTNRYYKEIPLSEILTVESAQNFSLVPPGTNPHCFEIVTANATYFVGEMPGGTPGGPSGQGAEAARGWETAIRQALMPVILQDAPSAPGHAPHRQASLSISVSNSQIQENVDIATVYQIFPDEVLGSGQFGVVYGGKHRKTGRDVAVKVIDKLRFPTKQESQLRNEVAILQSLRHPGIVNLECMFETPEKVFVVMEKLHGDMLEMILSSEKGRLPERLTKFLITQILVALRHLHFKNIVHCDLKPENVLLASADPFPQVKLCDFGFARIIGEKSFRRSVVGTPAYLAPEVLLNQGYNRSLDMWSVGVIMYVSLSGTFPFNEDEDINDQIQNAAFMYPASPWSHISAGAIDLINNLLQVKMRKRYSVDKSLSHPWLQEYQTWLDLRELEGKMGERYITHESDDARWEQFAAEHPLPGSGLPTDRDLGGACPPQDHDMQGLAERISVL
# PROTOCOL_SUMMARY: SelectScreen kinase specificity survey
# APPLIED_CONDITIONS: estimated, abridged dose response curve, read-out: Kinase inhibitory activity EC50
# Description: Testing of the compounds described in this invention was carried out using the SelectScreen™ platform from Invitrogen, Inc. (Carlsbad. Calif., USA) and the details of its performance are readily viewed via the web by linking to: http://www.invitrogen.com/downloads/SelectScrn_Brochure.pdf. Briefly, the approach is based on treating each specific kinase with a unique substrate and optical reporter system in the presence of ATP at 100 micromolar. […]
The following compounds are listed with their measured EC50 values.
Quick reminder: number only, in nM, skip the unit.

COMPOUND | TARGET_OR_SYSTEM | OBSERVATION_TYPE | ENDPOINT_VALUE
CCN(CC)CCNc1ccc2ncn3c4ccc(O)cc4c(=O)c1c23 [Symadex, reference compound] | UniProt Q9BZL6 | EC50 | 292

Below: the item to evaluate.
(Q) Report the value of EC50 obtained on UniProt Q9BZL6 for CN(C)CCCNc1ccc2ncn3c4ccc5[nH]ncc5c4c(=O)c1c23 [Compound (IV)] .
(A) 759

----------
# TARGET_OR_SYSTEM: MST1R (RON) (Homo sapiens, UniProt Q04912)
# Sequence (Q04912 25-1400): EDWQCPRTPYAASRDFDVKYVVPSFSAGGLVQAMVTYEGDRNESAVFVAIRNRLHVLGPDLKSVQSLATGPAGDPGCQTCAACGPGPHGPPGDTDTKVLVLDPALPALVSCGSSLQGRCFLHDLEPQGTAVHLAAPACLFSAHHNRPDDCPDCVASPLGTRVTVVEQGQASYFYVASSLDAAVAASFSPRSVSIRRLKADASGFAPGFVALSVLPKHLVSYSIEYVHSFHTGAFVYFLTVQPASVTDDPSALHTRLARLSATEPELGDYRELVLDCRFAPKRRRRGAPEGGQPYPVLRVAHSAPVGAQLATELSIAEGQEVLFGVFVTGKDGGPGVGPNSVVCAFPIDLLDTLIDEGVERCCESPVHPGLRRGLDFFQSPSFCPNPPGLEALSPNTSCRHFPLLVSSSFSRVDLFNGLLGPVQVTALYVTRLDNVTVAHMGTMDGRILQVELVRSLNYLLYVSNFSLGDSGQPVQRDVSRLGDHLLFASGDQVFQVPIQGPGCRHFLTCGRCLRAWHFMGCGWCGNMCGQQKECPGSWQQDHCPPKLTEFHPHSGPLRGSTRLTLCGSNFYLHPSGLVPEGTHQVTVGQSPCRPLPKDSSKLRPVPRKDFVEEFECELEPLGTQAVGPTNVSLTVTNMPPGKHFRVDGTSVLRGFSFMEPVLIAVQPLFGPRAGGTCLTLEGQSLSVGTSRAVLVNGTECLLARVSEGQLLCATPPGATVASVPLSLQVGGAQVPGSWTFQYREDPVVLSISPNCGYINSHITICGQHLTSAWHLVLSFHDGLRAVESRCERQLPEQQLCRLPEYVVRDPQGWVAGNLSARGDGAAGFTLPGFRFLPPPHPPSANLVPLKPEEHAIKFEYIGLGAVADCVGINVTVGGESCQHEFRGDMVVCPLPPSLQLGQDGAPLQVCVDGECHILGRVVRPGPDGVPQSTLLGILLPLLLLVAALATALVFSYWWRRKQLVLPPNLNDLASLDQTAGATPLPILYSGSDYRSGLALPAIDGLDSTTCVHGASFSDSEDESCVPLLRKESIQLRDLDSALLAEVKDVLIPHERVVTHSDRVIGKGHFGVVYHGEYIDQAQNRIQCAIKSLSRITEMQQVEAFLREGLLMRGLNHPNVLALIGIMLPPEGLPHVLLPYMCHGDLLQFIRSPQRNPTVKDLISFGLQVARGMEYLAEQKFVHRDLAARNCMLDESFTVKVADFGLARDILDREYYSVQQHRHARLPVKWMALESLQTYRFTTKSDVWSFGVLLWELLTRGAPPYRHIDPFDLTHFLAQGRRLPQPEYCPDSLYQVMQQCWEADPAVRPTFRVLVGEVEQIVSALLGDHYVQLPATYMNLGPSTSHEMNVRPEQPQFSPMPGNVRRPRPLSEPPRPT
# PROTOCOL_SUMMARY: SelectScreen kinase specificity survey
# APPLIED_CONDITIONS: estimated, abridged dose response curve, read-out: Kinase inhibitory activity EC50
pEC50: −log10 of the molar value.
OBSERVATION_TYPE: pEC50

COMPOUND | pEC50
CN(C)CCCNc1ccc2ncn3c4ccc5[nH]ncc5c4c(=O)c1c23 [Compound (IV)] | < 5.30

Below: the item to evaluate.
(Q) Supply recorded pEC50 for CCN(CC)CCNc1ccc2ncn3c4ccc(O)cc4c(=O)c1c23 [Symadex, reference compound] here.
(A) < 5.30

----------
# TARGET_OR_SYSTEM: UniProt P78368
# Sequence (P78368 whole entry): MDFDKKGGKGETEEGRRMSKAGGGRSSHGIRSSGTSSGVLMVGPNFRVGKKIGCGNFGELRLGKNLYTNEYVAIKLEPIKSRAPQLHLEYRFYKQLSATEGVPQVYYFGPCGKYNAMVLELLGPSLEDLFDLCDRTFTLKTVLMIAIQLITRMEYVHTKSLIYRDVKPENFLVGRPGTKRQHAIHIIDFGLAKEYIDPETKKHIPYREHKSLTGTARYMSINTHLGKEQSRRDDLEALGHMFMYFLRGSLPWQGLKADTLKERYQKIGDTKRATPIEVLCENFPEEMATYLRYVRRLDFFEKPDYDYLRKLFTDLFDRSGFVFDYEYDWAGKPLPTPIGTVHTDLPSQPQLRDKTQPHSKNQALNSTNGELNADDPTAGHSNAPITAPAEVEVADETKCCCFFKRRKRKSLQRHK
# PROTOCOL_SUMMARY: SelectScreen kinase specificity survey
# APPLIED_CONDITIONS: estimated, abridged dose response curve, read-out: Kinase inhibitory activity EC50
OBSERVATION_TYPE: EC50

MOLECULE | TARGET_OR_SYSTEM | ENDPOINT_VALUE
CCN(CC)CCNc1ccc2ncn3c4ccc(O)cc4c(=O)c1c23 [Symadex, reference compound] | UniProt P78368 | > 5 µM

Below: the item to evaluate.
(Q) Report the value of EC50 obtained on UniProt P78368 for CN(C)CCCNc1ccc2ncn3c4ccc5[nH]ncc5c4c(=O)c1c23 [Compound (IV)] .
(A) > 5 µM

----------
# TARGET_OR_SYSTEM: RET Y791F (Homo sapiens, UniProt P07949, Y791F)
# Sequence (P07949 29-1114 Y791F): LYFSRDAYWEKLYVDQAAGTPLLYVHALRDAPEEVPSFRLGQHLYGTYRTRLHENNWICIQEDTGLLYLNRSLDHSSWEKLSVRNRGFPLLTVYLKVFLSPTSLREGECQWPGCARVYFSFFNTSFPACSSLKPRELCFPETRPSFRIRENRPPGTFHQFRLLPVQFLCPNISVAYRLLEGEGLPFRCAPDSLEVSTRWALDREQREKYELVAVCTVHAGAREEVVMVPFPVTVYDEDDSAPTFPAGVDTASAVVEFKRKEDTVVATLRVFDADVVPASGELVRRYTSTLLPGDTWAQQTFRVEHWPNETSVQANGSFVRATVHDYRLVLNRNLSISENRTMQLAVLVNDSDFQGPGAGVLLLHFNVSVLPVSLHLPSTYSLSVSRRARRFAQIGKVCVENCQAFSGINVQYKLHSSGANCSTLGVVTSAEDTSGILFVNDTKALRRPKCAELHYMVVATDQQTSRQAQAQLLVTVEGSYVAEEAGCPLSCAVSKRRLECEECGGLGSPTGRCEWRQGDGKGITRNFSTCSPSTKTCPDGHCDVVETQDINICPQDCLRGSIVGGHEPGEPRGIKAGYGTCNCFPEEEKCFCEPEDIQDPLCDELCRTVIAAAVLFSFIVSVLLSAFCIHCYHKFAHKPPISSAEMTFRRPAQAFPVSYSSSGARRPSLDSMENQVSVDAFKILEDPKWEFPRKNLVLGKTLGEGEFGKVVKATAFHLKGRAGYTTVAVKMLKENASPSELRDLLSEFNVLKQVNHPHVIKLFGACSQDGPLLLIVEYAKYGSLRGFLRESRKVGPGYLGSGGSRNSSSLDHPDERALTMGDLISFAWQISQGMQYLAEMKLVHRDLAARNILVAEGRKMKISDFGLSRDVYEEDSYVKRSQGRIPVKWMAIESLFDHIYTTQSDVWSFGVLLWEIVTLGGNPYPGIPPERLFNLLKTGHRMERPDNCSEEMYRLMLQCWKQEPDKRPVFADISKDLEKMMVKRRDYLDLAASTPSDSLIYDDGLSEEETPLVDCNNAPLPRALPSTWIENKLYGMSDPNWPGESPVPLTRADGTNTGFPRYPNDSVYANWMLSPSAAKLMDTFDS
# PROTOCOL_SUMMARY: SelectScreen kinase specificity survey
# APPLIED_CONDITIONS: estimated, abridged dose response curve, read-out: Kinase inhibitory activity EC50
The following compounds are listed with their measured pEC50 values.
pEC50 is defined as minus the log10 of a concentration measured in mol/L.

COMPOUND | ENDPOINT_VALUE
CN(C)CCCNc1ccc2ncn3c4ccc5[nH]ncc5c4c(=O)c1c23 | 6.20

Below: the item to evaluate.
(Q) Supply recorded pEC50 for CCN(CC)CCNc1ccc2ncn3c4ccc(O)cc4c(=O)c1c23 [Symadex, reference compound] here.
(A) 5.91

----------
# TARGET_OR_SYSTEM: UniProtKB P36507
# Sequence (P36507 whole entry): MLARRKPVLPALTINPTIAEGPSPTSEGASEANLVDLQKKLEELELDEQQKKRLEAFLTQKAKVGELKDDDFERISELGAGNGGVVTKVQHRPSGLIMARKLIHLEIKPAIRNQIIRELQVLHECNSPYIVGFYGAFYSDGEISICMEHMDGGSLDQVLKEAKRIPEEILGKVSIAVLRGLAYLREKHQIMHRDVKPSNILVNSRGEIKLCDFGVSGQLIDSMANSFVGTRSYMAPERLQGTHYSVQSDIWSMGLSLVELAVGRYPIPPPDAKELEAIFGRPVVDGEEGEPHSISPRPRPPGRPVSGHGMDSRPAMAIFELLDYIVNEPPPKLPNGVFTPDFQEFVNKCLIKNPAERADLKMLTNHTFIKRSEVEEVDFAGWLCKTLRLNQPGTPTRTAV
# PROTOCOL_SUMMARY: SelectScreen kinase specificity survey
# APPLIED_CONDITIONS: estimated, abridged dose response curve, read-out: Kinase inhibitory activity EC50
# Experimental: Testing of the compounds described in this invention was carried out using the SelectScreen™ platform from Invitrogen, Inc. (Carlsbad. Calif., USA) and the details of its performance are readily viewed via the web by linking to: http://www.invitrogen.com/downloads/SelectScrn_Brochure.pdf. Briefly, the approach is based on treating each specific kinase with a unique substrate and optical reporter system in the presence of ATP at 100 micromolar. […]
OBSERVATION_TYPE: EC50

COMPOUND | TARGET_OR_SYSTEM | OBSERVATION_TYPE | ENDPOINT_VALUE
CCN(CC)CCNc1ccc2ncn3c4ccc(O)cc4c(=O)c1c23 [Symadex, reference compound] | UniProtKB P36507 | EC50 | > 5 µM

(Q) Report the value of EC50 obtained on UniProtKB P36507 for CN(C)CCCNc1ccc2ncn3c4ccc5[nH]ncc5c4c(=O)c1c23 .
(A) > 5 µM

----------
The following compounds are listed with their measured pEC50 values.
# TARGET_OR_SYSTEM: PRKG1 (PKG1) (Homo sapiens, UniProt Q13976)
# Sequence (Q13976 whole entry): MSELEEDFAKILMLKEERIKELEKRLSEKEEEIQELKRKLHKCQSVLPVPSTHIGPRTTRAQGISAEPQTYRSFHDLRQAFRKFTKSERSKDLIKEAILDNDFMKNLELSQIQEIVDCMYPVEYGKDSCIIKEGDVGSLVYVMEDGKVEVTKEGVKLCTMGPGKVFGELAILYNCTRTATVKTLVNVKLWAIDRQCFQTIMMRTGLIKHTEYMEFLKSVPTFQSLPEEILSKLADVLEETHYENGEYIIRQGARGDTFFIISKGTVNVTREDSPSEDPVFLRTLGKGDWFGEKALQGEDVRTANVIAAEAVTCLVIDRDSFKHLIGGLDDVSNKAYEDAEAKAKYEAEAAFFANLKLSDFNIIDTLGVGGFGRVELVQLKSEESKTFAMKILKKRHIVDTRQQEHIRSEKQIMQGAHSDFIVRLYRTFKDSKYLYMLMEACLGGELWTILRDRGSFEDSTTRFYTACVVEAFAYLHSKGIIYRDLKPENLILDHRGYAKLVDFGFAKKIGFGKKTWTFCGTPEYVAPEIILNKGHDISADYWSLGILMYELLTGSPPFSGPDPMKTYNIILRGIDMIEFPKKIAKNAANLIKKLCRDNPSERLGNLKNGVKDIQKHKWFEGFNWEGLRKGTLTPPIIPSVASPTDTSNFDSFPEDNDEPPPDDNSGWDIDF
# PROTOCOL_SUMMARY: SelectScreen kinase specificity survey
# APPLIED_CONDITIONS: estimated, abridged dose response curve, read-out: Kinase inhibitory activity EC50
pEC50: −log10 of the molar value.

COMPOUND | OBSERVATION_TYPE | ENDPOINT_VALUE
CCN(CC)CCNc1ccc2ncn3c4ccc(O)cc4c(=O)c1c23 [Symadex, reference compound] | pEC50 | < 5.30

Below: the item to evaluate.
(Q) Supply recorded pEC50 for CN(C)CCCNc1ccc2ncn3c4ccc5[nH]ncc5c4c(=O)c1c23 [Compound (IV)] here.
(A) < 5.30

----------
# TARGET_OR_SYSTEM: PRKCB1 (PKC beta I) (Homo sapiens)
# Sequence (P05771 whole entry): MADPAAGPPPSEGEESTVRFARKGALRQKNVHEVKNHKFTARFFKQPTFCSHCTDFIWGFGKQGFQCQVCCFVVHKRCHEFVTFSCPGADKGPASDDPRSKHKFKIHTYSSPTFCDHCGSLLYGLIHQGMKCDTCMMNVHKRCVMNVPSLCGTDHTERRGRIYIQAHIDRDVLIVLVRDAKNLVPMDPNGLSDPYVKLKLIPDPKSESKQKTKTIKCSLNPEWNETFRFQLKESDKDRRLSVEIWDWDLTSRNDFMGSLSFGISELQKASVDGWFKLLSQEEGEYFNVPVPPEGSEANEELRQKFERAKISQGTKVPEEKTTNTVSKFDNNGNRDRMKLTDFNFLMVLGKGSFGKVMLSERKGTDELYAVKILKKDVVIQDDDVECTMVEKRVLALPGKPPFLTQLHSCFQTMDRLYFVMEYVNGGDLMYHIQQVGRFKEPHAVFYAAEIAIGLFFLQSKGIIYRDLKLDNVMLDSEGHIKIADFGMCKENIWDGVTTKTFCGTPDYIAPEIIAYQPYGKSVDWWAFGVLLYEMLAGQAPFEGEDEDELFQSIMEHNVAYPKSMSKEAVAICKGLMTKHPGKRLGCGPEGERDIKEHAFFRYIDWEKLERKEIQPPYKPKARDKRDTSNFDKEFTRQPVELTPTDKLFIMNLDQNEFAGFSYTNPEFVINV
# PROTOCOL_SUMMARY: SelectScreen kinase specificity survey
# APPLIED_CONDITIONS: estimated, abridged dose response curve, read-out: Kinase inhibitory activity EC50
pEC50: −log10 of the molar value.
The following compounds are listed with their measured pEC50 values.

COMPOUND | TARGET_OR_SYSTEM | ENDPOINT_VALUE
CN(C)CCCNc1ccc2ncn3c4ccc5[nH]ncc5c4c(=O)c1c23 | PRKCB1 (PKC beta I) (Homo sapiens) | < 5.30

Below: the item to evaluate.
(Q) Supply recorded pEC50 for CCN(CC)CCNc1ccc2ncn3c4ccc(O)cc4c(=O)c1c23 [Symadex, reference compound] here.
(A) < 5.30

----------
# TARGET_OR_SYSTEM: STK22D (TSSK1) (Homo sapiens)
# Sequence (Q9BXA7 1-367): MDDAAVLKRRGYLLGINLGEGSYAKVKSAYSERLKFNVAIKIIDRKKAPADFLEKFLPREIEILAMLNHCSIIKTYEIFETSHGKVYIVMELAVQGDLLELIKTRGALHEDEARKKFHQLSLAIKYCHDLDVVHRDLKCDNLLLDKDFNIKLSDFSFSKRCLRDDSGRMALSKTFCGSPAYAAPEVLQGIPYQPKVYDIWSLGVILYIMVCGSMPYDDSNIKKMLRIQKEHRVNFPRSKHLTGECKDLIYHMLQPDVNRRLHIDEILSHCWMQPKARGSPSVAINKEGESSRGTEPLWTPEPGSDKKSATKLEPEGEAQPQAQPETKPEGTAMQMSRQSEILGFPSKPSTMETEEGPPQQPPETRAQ
# PROTOCOL_SUMMARY: SelectScreen kinase specificity survey
# APPLIED_CONDITIONS: estimated, abridged dose response curve, read-out: Kinase inhibitory activity EC50
OBSERVATION_TYPE: EC50 (nM)
Quick reminder: number only, in nM, skip the unit.

COMPOUND | ENDPOINT_VALUE
CCN(CC)CCNc1ccc2ncn3c4ccc(O)cc4c(=O)c1c23 [Symadex, reference compound] | 1950

Below: the item to evaluate.
(Q) Supply recorded EC50 for CN(C)CCCNc1ccc2ncn3c4ccc5[nH]ncc5c4c(=O)c1c23 here.
(A) 2020
